system: HCM-SANG-0291-C15 (oesophageal cancer organoid); experiment: activity (1 - area under the dose-response curve within the screened range) (fraction); higher = more sensitive; conditions: ECM percentage in culture prior to screening 80 %; treatment time: 72 h
Recorded activity by entry
Hey, just send me the number, nothing else.

Form: molecule = C[C@]12CC[C@@H]3c4ccc(O)cc4C[C@@H](CCCCCCCCC[S+]([O-])CCCC(F)(F)C(F)(F)F)[C@H]3[C@@H]1CC[C@@H]2O (stereo partly drawn) [Fulvestrant] ; activity = 0.0212

----------
system: HCM-SANG-0291-C15; test: activity (1 - area under the dose-response curve within the screened range) (fraction); higher = more sensitive; settings: ECM percentage in culture prior to screening 80 %; treatment time: 72 h
Recorded activity by entry
Hey, just send me the number, nothing else.

>  <compound>
CCN(CC)CCCCNc1ncc2cc(-c3cc(OC)cc(OC)c3)c(NC(=O)NC(C)(C)C)nc2n1

>  <activity>
0.0496

$$$$

Form: compound = N.N.[Cl][Pt][Cl] [Cisplatin] ; activity = 0.151

Form: compound = CC[C@@H]1C(=O)N(C)c2cnc(Nc3ccc(C(=O)NC4CCN(C)CC4)cc3OC)nc2N1C1CCCC1 ; activity = 0.464

Form: compound = Cn1ncc(Cl)c1-c1cc(C(=O)N[C@H](CN)Cc2ccc(F)c(F)c2)oc1Cl ; activity = 0.0257

----------
test system: HCM-SANG-0266-C20 (colorectal cancer organoid); assay: activity (1 - area under the dose-response curve within the screened range) (fraction); higher = more sensitive; conditions: ECM percentage in culture prior to screening 5 %; treatment time: 72 h
quantity_name: activity
Hey, just send me the number, nothing else.

Hey, HCM-SANG-0266-C20 data for Nc1ccccc1NC(=O)c1ccc(CNC(=O)OCc2cccnc2)cc1 : activity came out at 0.0903

Hey, HCM-SANG-0266-C20 data for COc1ccc(-c2ccc3c(N4CCOC[C@@H]4C)nc(N4CCOC[C@@H]4C)nc3n2)cc1CO : activity came out at 0.298

Hey, HCM-SANG-0266-C20 data for O=C(c1cc(Cc2n[nH]c(=O)c3ccccc23)ccc1F)N1CCN(C(=O)C2CC2)CC1 : activity came out at 0.0602

----------
test system: HCM-SANG-0266-C20; test: activity (1 - area under the dose-response curve within the screened range) (fraction); higher = more sensitive; conditions: ECM percentage in culture prior to screening 5 %; treatment time: 72 h
quantity_name: activity
Hey, just send me the number, nothing else.

>  <compound>
COc1ccc(C2=N[C@@H](c3ccc(Cl)cc3)[C@@H](c3ccc(Cl)cc3)N2C(=O)N2CCNC(=O)C2)c(OC(C)C)c1 [Nutlin-3a (-)]

>  <measured_value>
0.218

$$$$
>  <compound>
COc1cc(Nc2ncc3c(n2)-c2ccc(Cl)cc2C(c2c(F)cccc2OC)=NC3)ccc1C(=O)O [Alisertib]

>  <measured_value>
0.266

$$$$
>  <compound>
CS(=O)(=O)CCNCc1ccc(-c2ccc3ncnc(Nc4ccc(OCc5cccc(F)c5)c(Cl)c4)c3c2)o1 [Lapatinib]

>  <measured_value>
0.21

$$$$

Hey, HCM-SANG-0266-C20 data for CCNC(=O)c1noc(-c2cc(C(C)C)c(O)cc2O)c1-c1ccc(CN2CCOCC2)cc1 [Luminespib] : activity came out at 0.319

----------
system: HCM-SANG-0266-C20; assay: activity (1 - area under the dose-response curve within the screened range) (fraction); higher = more sensitive; details: ECM percentage in culture prior to screening 5 %; treatment time: 72 h
Recorded activity by entry
Hey, just send me the number, nothing else.

The examples below pair each entry with its known result.
>  <compound>
CS(=O)(=O)N1CCN(Cc2cc3nc(-c4cccc5[nH]ncc45)nc(N4CCOCC4)c3s2)CC1 [Pictilisib]

>  <activity>
0.198

$$$$
>  <compound>
Cc1nc(Nc2ncc(C(=O)Nc3c(C)cccc3Cl)s2)cc(N2CCN(CCO)CC2)n1 [Dasatinib]

>  <activity>
0.129

$$$$
>  <compound>
C[C@@]1(C(=O)Nc2ccc(F)nc2)CCCN1c1nc(Nc2cc(C3CC3)n[nH]2)c2cccn2n1

>  <activity>
0.455

$$$$
>  <compound>
COc1cc2nccc(Oc3ccc(NC(=O)Nc4cc(C)on4)c(Cl)c3)c2cc1OC [Tivozanib]

>  <activity>
0.0203

$$$$

Form: compound = O=c1[nH]cc(F)c(=O)[nH]1 [5-Fluorouracil] ; activity = 0.137

Form: compound = Cc1nc(-c2cn3c(n2)-c2ccc(-c4cnn(C(C)(C)C(N)=O)c4)cc2OCC3)n(C(C)C)n1 [Taselisib] ; activity = 0.413

Form: compound = COc1cccc2cc(-c3nc([C@H]4CC[C@H](C(=O)O)CC4)n4ncnc(N)c34)[nH]c12 [OSI-027] ; activity = 0.141

Form: compound = CNC(=O)CN1CCC(Oc2cc3c(Nc4cccc(Cl)c4F)ncnc3cc2OC)CC1 [Sapitinib] ; activity = 0.255

----------
tested on: HCM-SANG-0266-C20; assay: activity (1 - area under the dose-response curve within the screened range) (fraction); higher = more sensitive; details: ECM percentage in culture prior to screening 5 %; treatment time: 72 h
Use 0.2 as the dividing line for activity, with the line itself on the satisfied side and lower values as not satisfied.

In: Evaluate CC1(C)CCC(c2ccc(Cl)cc2)=C(CN2CCN(c3ccc(C(=O)NS(=O)(=O)c4ccc(N[C@H](CCN5CCOCC5)CSc5ccccc5)c(S(=O)(=O)C(F)(F)F)c4)cc3)CC2)C1 : activity at minimum 0.2?
Out: satisfied

In: Evaluate CCc1c2c(nc3ccc(OC(=O)N4CCC(N5CCCCC5)CC4)cc13)-c1cc3c(c(=O)n1C2)COC(=O)[C@]3(O)CC : activity at minimum 0.2?
Out: not satisfied

In: Evaluate CN(C)C(=O)c1cc2cnc(Nc3ccc(N4CCNCC4)cn3)nc2n1C1CCCC1 : activity at minimum 0.2?
Out: not satisfied

In: Evaluate Cn1nnc2c(C(N)=O)ncn2c1=O [Temozolomide] : activity at minimum 0.2?
Out: not satisfied

In: Evaluate C#Cc1cccc(Nc2ncnc3cc(OCCOC)c(OCCOC)cc23)c1 : activity at minimum 0.2?
Out: not satisfied

In: Evaluate CC(=O)O[C@H]1C(=O)[C@@]2(C)[C@H]([C@H](OC(=O)c3ccccc3)[C@]3(O)C[C@H](OC(=O)[C@H](O)[C@@H](NC(=O)c4ccccc4)c4ccccc4)C(C)=C1C3(C)C)[C@]1(OC(C)=O)CO[C@@H]1C[C@@H]2O : activity at minimum 0.2?
Out: satisfied

----------
test system: HCM-SANG-0266-C20; assay: activity (1 - area under the dose-response curve within the screened range) (fraction); higher = more sensitive; settings: ECM percentage in culture prior to screening 5 %; treatment time: 72 h
quantity_name: activity
Hey, just send me the number, nothing else.

The examples below pair each entry with its known result.
>  <molecule>
C[C@]12CC[C@@H]3c4ccc(O)cc4C[C@@H](CCCCCCCCC[S+]([O-])CCCC(F)(F)C(F)(F)F)[C@H]3[C@@H]1CC[C@@H]2O (some centres undefined)

>  <study_target>
HCM-SANG-0266-C20

>  <measured_value>
0.0414

$$$$
>  <molecule>
N#CC[C@H](C1CCCC1)n1cc(-c2ncnc3[nH]ccc23)cn1

>  <study_target>
HCM-SANG-0266-C20

>  <measured_value>
0.0203

$$$$
>  <molecule>
CC[C@@H]1C(=O)N(C)c2cnc(Nc3ccc(C(=O)NC4CCN(C)CC4)cc3OC)nc2N1C1CCCC1

>  <study_target>
HCM-SANG-0266-C20

>  <measured_value>
0.439

$$$$

Form: molecule = NC1(c2ccc(-c3nc4ccn5c(=O)[nH]nc5c4cc3-c3ccccc3)cc2)CCC1 ; activity = 0.223

----------
Recorded activity by entry
test system: HCM-SANG-0291-C15; experiment: activity (1 - area under the dose-response curve within the screened range) (fraction); higher = more sensitive; conditions: ECM percentage in culture prior to screening 80 %; treatment time: 72 h
Hey, just send me the number, nothing else.

>  <molecular_string>
C=CCn1c(=O)c2cnc(Nc3ccc(N4CCN(C)CC4)cc3)nc2n1-c1cccc(C(C)(C)O)n1

>  <measured_value>
0.24

$$$$
>  <molecular_string>
NC(=O)Nc1cc(-c2cccc(F)c2)sc1C(=O)N[C@H]1CCCNC1

>  <measured_value>
0.248

$$$$
>  <molecular_string>
O=C(Nc1ccc2[nH]nc(-c3ccncc3)c2c1)[C@@H]1CCN(CC(=O)N2CCN(c3ccc(-c4ncccn4)cc3)CC2)C1

>  <measured_value>
0.224

$$$$
>  <molecular_string>
C[C@]1(O)C[C@@H](c2nc(-c3ccc4ccc(-c5ccccc5)nc4c3)c3c(N)nccn32)C1

>  <measured_value>
0.0248

$$$$
>  <molecular_string>
CC(=O)Nc1cccc(-n2c(=O)n(C3CC3)c(=O)c3c(Nc4ccc(I)cc4F)n(C)c(=O)c(C)c32)c1

>  <measured_value>
0.0654

$$$$
>  <molecular_string>
COc1ccc(-c2ccc3c(N4CCOC[C@@H]4C)nc(N4CCOC[C@@H]4C)nc3n2)cc1CO

>  <measured_value>
0.0634

$$$$

Form: molecule = O=C(O)C1(C(=O)O)CCC1.[NH2-].[NH2-].[Pt+2] ; activity = 0.0271

Form: molecule = C[C@@H](Oc1cc(-c2cnn(C3CCNCC3)c2)cnc1N)c1c(Cl)ccc(F)c1Cl ; activity = 0.065
